Measured TGI of individual entries
System: CCRF-CEM leukemia
Assay: NCI tumour cell line growth inhibition, 48 h
Where a SMILES comes first, the peptide text is derived from it. The star is where a group is joined. Trt = c1ccc(C(c2ccccc2)(c2ccccc2)*)cc1; Cbz = O=C(OCc1ccccc1)*

molecule	TGI
Nc1nc2c(N)cc(C(F)(F)F)cc2nc1-c1ccccc1	> 100 µM
CCCCOCCOCCOC1=CC(=O)c2c(O)ccc(O)c2C1=O	6.01 µM
O=C1Nc2ccc(Br)cc2C12CC(c1ccccc1)=NN2 (stereo unspecified)	37.7 µM
O=C1N=C2SC=C(NC(=S)Nc3ccccc3)N2NC12c1ccccc1-c1ccccc12	> 10 µM
O=NN1C(c2ccccc2)CNC(=O)CC1c1ccccc1 (stereo unspecified)	> 100 µM
Cc1ccc(NC(=O)CCCC(=O)CC(=O)c2ccc(Br)cc2)cc1	> 100 µM
CC(CSC(=N)N)C(N)=O (stereo unspecified)	> 100 µM
CCOC(=O)c1c2ccc(/C=C/c3ccccn3)ccc-2c(C(=O)OCC)c1N	> 100 µM
O=C1N/C(=N\N=C\c2ccccc2)C(c2ccccc2)O1 (stereo unspecified)	49.4 µM
COc1cc2cc(Oc3ccc(NC(=O)Nc4cc(C(F)(F)F)cc(C(F)(F)F)c4)cc3)c(C)nc2cc1OCCN1CCOCC1	6.57 µM
CC1(C)OC(=O)C(C)(C)C(=O)O1	> 100 µM
CC(C)=CCc1cc2c(cc1O)C1=C(C(=O)C3=C(C1=O)S(=O)(=O)CCN3)C(C=C(C)C)O2 (stereo unspecified)	8.98 µM
CN1CCN(CC(=O)N(C)c2ccc(N=C(c3ccccc3)c3c(O)[nH]c4ccc(C#N)cc34)cc2)CC1	12.5 µM
CC1=NN(c2nc(N)nc(NS(=O)(=O)c3cc(C)c(Cl)cc3S)n2)C(C)(C)C1	> 10 µM
COC(=O)C(CO)NC(=O)C(CSC(c1ccccc1)(c1ccccc1)c1ccccc1)NC(=O)OCc1ccccc1 (stereo unspecified) (Cbz-Cys(Trt)-Ser-OMe; configuration not given here)	7.63 µM
Cc1ccc(/C=C2\Sc3scc(-c4ccccc4)[n+]3C2=O)cc1	32.9 µM
CC1=CC2C(C=C1)S(=O)(=O)N1CC21c1ccccc1 (stereo unspecified)	> 100 µM
CCNC(=O)C(C)C1CCC2(C)C=CC(=O)C(C)=C2C1O (stereo unspecified)	> 100 µM
COc1ccc(C2=Nc3c(nc(OC)[nH]c3=O)NC(c3ccccc3)C2)cc1 (stereo unspecified)	> 100 µM
O=C1CCN2c3ccccc3[C@H]3Cc4cccc(c4[C@@H]2C3)CCO1	> 100 µM
O=C1CN(c2ccccc2)Cc2nc(Cl)ccc2N1	> 100 µM

* * *

Test system: NCI-H522 lung
Experiment: NCI tumour cell line growth inhibition, 48 h
measured endpoint: TGI

molecule	measured endpoint	test result
COCC(C)(C)N=CN1Cc2cc3ccccc3nc2C1	TGI	> 100 µM
Nc1nc2c(N)cc(C(F)(F)F)cc2nc1-c1ccccc1	TGI	> 100 µM
CO/C(N)=C(\C#N)N=Cc1ccc2ccccc2c1	TGI	> 100 µM
O=C1CC(c2c[nH]c3ccc(F)cc23)C(=O)N1 (configuration not stated)	TGI	> 100 µM
Oc1ccc(Br)cc1C=Nc1cccc(C(F)(F)F)c1	TGI	> 100 µM
COc1cc2c(c(OC)c1OC)-c1ccc(NN(C(=O)c3ccccc3)C(=O)c3ccccc3)c(=O)cc1[C@@H](NC(C)=O)CC2 (tested in a mixture with another compound)	TGI	6.18 µM
COc1ccc(C(O)/C(=N/N)c2nc3ccc(Cl)cc3[nH]c2=O)cc1 (configuration not stated)	TGI	> 100 µM
COc1ccccc1NC(=O)C1=C(C)NC(C)=C(C(=O)Nc2ccccc2OC)C1c1ccccc1[N+](=O)[O-]	TGI	26.8 µM
CC1=NN=C(C)C1N=Nc1ccc2nc(C)[nH]c2c1	TGI	> 100 µM
C=C1CC(C)(COc2ccc3c(C)c(Cl)c(=O)oc3c2)OC1=O (configuration not stated)	TGI	2.1 µM
CC(C)OC(=O)c1ccc(NCc2cc(O)ccc2O)cc1	TGI	0.638 µM
O=C1N/C(=N\N=C\c2ccccc2)C(c2ccccc2)O1 (configuration not stated)	TGI	> 100 µM
C[C@]12C=CC(=O)C=C1CC[C@@H]1[C@@H]2CC[C@@]2(C)[C@H]1CC[C@]2(O)C(N)=O	TGI	> 100 µM
COc1ccc2[nH]c3c(c2c1)[C@H](c1ccccc1)C[C@@H]1C(=O)N(c2ccccc2)C(=O)[C@H]31	TGI	> 100 µM
CC1=C(c2nc3ccccc3s2)C(=O)OC1(C)C	TGI	> 100 µM
CN(C)CCNc1ccc2ncn3c4ccccc4c(=O)c1c23	TGI	5.41 µM
CC1(C)C2CCC3CC(CCC#N)CCC3C21C#N (configuration not stated)	TGI	> 100 µM
Nc1nncc2c1c(Br)cn2C1OC(CO)C(O)C1O (configuration not stated)	TGI	> 100 µM
NS(=O)(=O)c1ccc(Nc2cc(-c3ccc(O)c(F)c3)[nH]n2)cc1	TGI	> 25 µM
N#CCn1c(=O)c(Oc2ccc(F)cc2F)cc2cnc(NC3CCOCC3)nc21	TGI	> 25 µM
Cc1cc(=O)oc2ccc(OC/C=C3\CCC(=O)O3)cc12	TGI	3.57 µM
C/C(=N\O)c1ccc2ccc3ccccc3c2c1	TGI	72.7 µM
